Target: Aryl hydrocarbon receptor (Homo sapiens)
Test: ATG_Ahr_CIS: Attagene CIS-FACTORIAL HepG2 Assay for human Aryl Hydrocarbon Receptor (Ahr) (AID 2282930)
Details: HepG2 AhR cis-factorial reporter transcription; actives raise or lower the signal
Calls of active or inactive are those of the source. The calls were made as follows: active = hit-call score of the fitted dose curve at least 0.9, where 1 is the maximum; inactive = score below 0.9.
Please state which outcome applies, choosing from 1 for active, -1 for inactive

Take a look at these entries with their results.
- Molecule: "CC(=O)c1cc(C(C)(C)C)cc2c1CCC2(C)C"
  Label Class: -1
- Molecule: "ClCc1ccccn1"
  Label Class: 1
- Molecule: "O=C1C(Cl)=C(Cl)C(=O)c2ccccc21"
  Label Class: 1
- Molecule: "CCCCC(CC)CO[N+](=O)[O-] (stereo unspecified)"
  Label Class: -1
- Molecule: "Cl/C=C\\C[N+]12CN3CN(CN(C3)C1)C2"
  Label Class: -1

Turning now to a further molecule:
Task: Test call, this molecule: CCCCCCCCc1ccc(O)cc1
Result: -1
